# Test system: Saccharomyces cerevisiae;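 also: PSI is a weighted mean of sequencing reads over stability bins, variants kept only with over 10 reads, mCherry proximal and sfGFP distal, peptide attached via GGGS linker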
# assay_comment: protein stability index of tFT-peptide fusion (C-terminal peptide) (PSI (0-1 scale)); higher = more stable (slower turnover)
# experimental_parameters: genetic background: wild type; temperature: 30 C
# protein stability index values compiled below

{"entry_sequence": "CLRVSFFFWLFA", "protein stability index": 0.263}
{"entry_sequence": "SSVFLGWLIVCY", "protein stability index": 0.168}
{"entry_sequence": "VLSCIPRLAIAA", "protein stability index": 0.251}
{"entry_sequence": "LWVMVLFFPGCS", "protein stability index": 0.326}
{"entry_sequence": "CVILVVISGLLG", "protein stability index": 0.217}
{"entry_sequence": "LFIFYCFFFLVR", "protein stability index": 0.294}
{"entry_sequence": "LAINVRRELLFF", "protein stability index": 0.148}
{"entry_sequence": "GRSVGVTMFKNG", "protein stability index": 0.206}
{"entry_sequence": "YLVFSLCSYRFL", "protein stability index": 0.374}
{"entry_sequence": "KTSVLLCVSTSF", "protein stability index": 0.443}
{"entry_sequence": "SLSALPRPPRLL", "protein stability index": 0.677}
{"entry_sequence": "KNGNVEILIKCT", "protein stability index": 0.425}
{"entry_sequence": "PPLPPVCPSPSL", "protein stability index": 0.685}
{"entry_sequence": "WGLGWRGALVAV", "protein stability index": 0.324}
{"entry_sequence": "FFYVFPFFIFRF", "protein stability index": 0.362}
{"entry_sequence": "FLTLQSPIQYIV", "protein stability index": 0.117}
{"entry_sequence": "RRRRGGQSPALR", "protein stability index": 0.717}
{"entry_sequence": "PVLYSFSLWIHL", "protein stability index": 0.255}
{"entry_sequence": "HLLMLAMVGFQC", "protein stability index": 0.454}
{"entry_sequence": "LRVLSVVRLSVW", "protein stability index": 0.4}
{"entry_sequence": "WGRFFWGCGVWV", "protein stability index": 0.463}
{"entry_sequence": "PCVLAIYVWIRS", "protein stability index": 0.107}
{"entry_sequence": "PPGLLPPCLLVV", "protein stability index": 0.301}
{"entry_sequence": "LVWSGLIVVVGG", "protein stability index": 0.195}
{"entry_sequence": "FFVFLVLFCLWV", "protein stability index": 0.261}
{"entry_sequence": "SVLVSVVLFVRS", "protein stability index": 0.168}
{"entry_sequence": "RRTTIFDTKEPP", "protein stability index": 0.511}
{"entry_sequence": "LFCVCFYGRIFL", "protein stability index": 0.334}
{"entry_sequence": "ECCKRFCCRFVA", "protein stability index": 0.256}
{"entry_sequence": "APASFRVLISAF", "protein stability index": 0.0969}
{"entry_sequence": "ILLYCVLIDPYS", "protein stability index": 0.229}
{"entry_sequence": "RWRLWVGWWVVG", "protein stability index": 0.118}
{"entry_sequence": "LVVFGLVLSLLL", "protein stability index": 0.374}
{"entry_sequence": "LWVSHFVILIVS", "protein stability index": 0.108}
{"entry_sequence": "IISICLYFLVRC", "protein stability index": 0.212}
{"entry_sequence": "VGPLAPVCLLVL", "protein stability index": 0.359}
{"entry_sequence": "CFYVGFLGYFVF", "protein stability index": 0.367}
{"entry_sequence": "FKVTWGLFYGSV", "protein stability index": 0.548}
{"entry_sequence": "SRFFSCCVFPSF", "protein stability index": 0.654}
{"entry_sequence": "AERPVLIIIEFG", "protein stability index": 0.339}
{"entry_sequence": "WGLPVGVESSGG", "protein stability index": 0.661}
